Biological target: human CCK-B receptor (Homo sapiens, UniProt P32239)
Sequence (P32239 1-447): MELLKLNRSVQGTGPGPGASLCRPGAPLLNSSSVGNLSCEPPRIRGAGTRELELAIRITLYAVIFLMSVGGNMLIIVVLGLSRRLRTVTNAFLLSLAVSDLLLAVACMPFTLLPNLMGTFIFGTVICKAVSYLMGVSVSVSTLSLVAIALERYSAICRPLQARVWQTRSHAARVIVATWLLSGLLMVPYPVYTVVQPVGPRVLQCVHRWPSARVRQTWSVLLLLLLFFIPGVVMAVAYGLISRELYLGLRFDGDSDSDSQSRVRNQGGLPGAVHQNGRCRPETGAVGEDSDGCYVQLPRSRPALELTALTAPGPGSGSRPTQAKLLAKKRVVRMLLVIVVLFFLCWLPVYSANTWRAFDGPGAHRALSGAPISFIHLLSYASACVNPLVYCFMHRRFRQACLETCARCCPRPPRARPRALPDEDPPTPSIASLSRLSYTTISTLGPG
metric_name: Ki (nM)
Quick note: give the figure in nM, leave out the unit.

compound="O=C(Nc1ccc(F)cc1)NC1C(=O)N(CC(=O)N2CCCC2)c2ccccc2N(C2CCCCC2)C1=O (stereo not drawn) [Example 1]" target_of_assay="human CCK-B receptor (Homo sapiens, UniProt P32239)" metric_name=Ki scale_unit=nM measured_value=3.16
compound="O=C(Nc1ccc(F)cc1)NC1C(=O)N(CC(=O)N2CCCC2)c2ccccc2N(C2CCCCC2)C1=O (single isomer, unassigned) [1 (isomer 2)]" target_of_assay="human CCK-B receptor (Homo sapiens, UniProt P32239)" metric_name=Ki scale_unit=nM measured_value=7.94
compound="O=C(O)Cc1cccc(NC(=O)NC2C(=O)N(CC(=O)N3CCCC3)c3ccccc3N(c3ccccc3F)C2=O)c1 (stereo not drawn)" target_of_assay="human CCK-B receptor (Homo sapiens, UniProt P32239)" metric_name=Ki scale_unit=nM measured_value=3.98
compound="O=C(Nc1ccc(F)cc1)NC1C(=O)N(CC(=O)N2CCCC2)c2ccccc2N(C2CCCCC2)C1=O (single isomer, unassigned) [Example 1 (isomer 1)]" target_of_assay="human CCK-B receptor (Homo sapiens, UniProt P32239)" metric_name=Ki scale_unit=nM measured_value=3.16

Input: Entry CC1(C)CCCN(C(=O)CN2C(=O)C(NC(=O)Nc3cccc(C(=O)O)c3)C(=O)N(c3ccccc3F)c3ccccc32)C1 (stereo not drawn) , system human CCK-B receptor (Homo sapiens, UniProt P32239): what Ki was measured?
Output: 1.58

Input: Entry CC1(C)CCCN(C(=O)CN2C(=O)C(NC(=O)Nc3ccc(F)cc3)C(=O)N(c3ccccc3F)c3ccccc32)C1 (stereo not drawn) , system human CCK-B receptor (Homo sapiens, UniProt P32239): what Ki was measured?
Output: 2

Input: Entry Cc1cccc(NC(=O)NC2C(=O)N(CC(=O)N3CCCC3)c3ccccc3N(c3ccccc3)C2=O)c1 (stereo not drawn) , system human CCK-B receptor (Homo sapiens, UniProt P32239): what Ki was measured?
Output: 1.58

Input: Entry O=C(Nc1cccc(C(=O)O)c1)NC1C(=O)N(CC(=O)N2CCCC2)c2ccccc2N(C2CCCCC2)C1=O (stereo not drawn) , system human CCK-B receptor (Homo sapiens, UniProt P32239): what Ki was measured?
Output: 2

Input: Entry O=C(Nc1cccc(-c2nn[nH]n2)c1)NC1C(=O)N(CC(=O)N2CCCC2)c2ccccc2N(c2ccccc2)C1=O (stereo not drawn) , system human CCK-B receptor (Homo sapiens, UniProt P32239): what Ki was measured?
Output: 3.16

Where do these numbers come from? They come from patent US5585376A.
